Cited source: BigSolDB 2.1

Details: in 1,4-dioxane, 293.15 K
quantity.kind: solubility (mole fraction)
Give the figure only, with no unit attached.

Query block: What measured solubility (mole fraction) goes with NC(=O)C[C@H](NC(=O)OCc1ccccc1)C(=O)O ?
Result block: 0.00241

----------
Settings: in 2-butanone, 283.15 K
quantity.kind: solubility (mole fraction)

Query block: Entry NC(=O)C[C@H](NC(=O)OCc1ccccc1)C(=O)O : reported solubility (mole fraction) = ?
Result block: 0.000329

----------
Settings: in isobutanol, 313.15 K
quantity.kind: solubility (mole fraction)
Provide a numeric answer; units are not to be included.

Query block: Which measured solubility (mole fraction) value corresponds to NC(=O)C[C@H](NC(=O)OCc1ccccc1)C(=O)O ?
Result block: 0.000581

----------
Details: in water, 308.15 K
quantity.kind: solubility (mole fraction)
I'd appreciate a reply containing only the number, no unit.

Query block: Give the measured solubility (mole fraction) of NC(=O)C[C@H](NC(=O)OCc1ccccc1)C(=O)O .
Result block: 9.44e-05

----------
Conditions: in 2-butanone, 318.15 K
quantity.kind: solubility (mole fraction)
API note: the answer field is a bare number with no unit suffix.

Query block: Consider the molecule NC(=O)C[C@H](NC(=O)OCc1ccccc1)C(=O)O and give its measured solubility (mole fraction).
Result block: 0.00112

----------
Details: in ethanol, 323.15 K
quantity.kind: solubility (mole fraction)

Query block: Which solubility (mole fraction) is listed for NC(=O)C[C@H](NC(=O)OCc1ccccc1)C(=O)O ?
Result block: 0.00347

----------
Conditions: in 1,4-dioxane, 298.15 K
quantity.kind: solubility (mole fraction)
Answer as a number with no unit attached.

Query block: If you can, please state the reported solubility (mole fraction) value of NC(=O)C[C@H](NC(=O)OCc1ccccc1)C(=O)O .
Result block: 0.00271

----------
Settings: in water, 298.15 K
quantity.kind: solubility (mole fraction)

Query block: Please give the measured solubility (mole fraction) for this molecule: NC(=O)C[C@H](NC(=O)OCc1ccccc1)C(=O)O
Result block: 5.55e-05

----------
Details: in isopropanol, 293.15 K
quantity.kind: solubility (mole fraction)
Form field (numeric): enter value without unit.

Query block: Could you tell me which solubility (mole fraction) is on file for NC(=O)C[C@H](NC(=O)OCc1ccccc1)C(=O)O ?
Result block: 0.000431

----------
Conditions: in ethanol, 283.15 K
quantity.kind: solubility (mole fraction)
I only need the number, thanks.

Query block: GET /values?readout=solubility (mole fraction)&item= NC(=O)C[C@H](NC(=O)OCc1ccccc1)C(=O)O
Result block: 0.000263
